# TARGET DESC: T1, human CEA on cells (MKN45, LOVO, NCI-H2122, LS174T, CT26/CEA) (human, UniProt P06731 35-685)
# T1 sequence: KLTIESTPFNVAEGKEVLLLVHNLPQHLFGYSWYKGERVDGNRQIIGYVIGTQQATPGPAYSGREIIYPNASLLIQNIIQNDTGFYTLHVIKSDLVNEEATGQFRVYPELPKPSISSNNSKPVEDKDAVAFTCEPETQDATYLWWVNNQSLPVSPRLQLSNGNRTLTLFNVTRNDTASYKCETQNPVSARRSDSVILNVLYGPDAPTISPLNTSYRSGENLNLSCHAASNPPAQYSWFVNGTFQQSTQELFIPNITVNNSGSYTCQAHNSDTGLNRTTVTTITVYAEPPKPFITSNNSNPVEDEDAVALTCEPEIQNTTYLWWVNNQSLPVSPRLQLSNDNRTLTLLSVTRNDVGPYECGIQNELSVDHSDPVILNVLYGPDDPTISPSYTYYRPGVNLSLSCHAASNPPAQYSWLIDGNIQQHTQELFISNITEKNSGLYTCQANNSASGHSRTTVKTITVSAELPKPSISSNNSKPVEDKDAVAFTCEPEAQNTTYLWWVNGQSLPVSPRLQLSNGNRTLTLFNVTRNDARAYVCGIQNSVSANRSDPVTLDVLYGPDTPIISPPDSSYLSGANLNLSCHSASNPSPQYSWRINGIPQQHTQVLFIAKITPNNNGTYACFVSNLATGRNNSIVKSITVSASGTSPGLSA
# PROCEDURE DETAILS: cell-based or functional assay
OUTCOME MEASURE: EC50, cell killing of MKN45 cells
Answer by giving the amount and then stating its unit.

# input Which EC50, cell killing of MKN45 cells value is on record for BGA7413 (antibody, human IgG1, kappa, V domains shown, linker-payload conjugated after reduction of the antibody, DAR 8 profile (structure only as a drawing in Table 18)) VH: QVQLVQSGAEVKKPGASVKVSCKASGYIFTSYYLHWVRQAPGQGLEWIGYINPQTGKTSYAQKFQGRVTMTRDTSTSTVYMELSSLRSEDTAVYYCAREYGNYNYPLDYWGQGTLVTVSS VL: DIQMTQSPSSLSASVGDRVTITCRASENQYGYLAWYQQKPGKVPKLLIYNYKNLVEGVPSRFSGSGSGTDFTLTISSLQPEDVATYYCQHHLGTPYTFGQGTKVEIKR ?
# output 0.46 nM

# input Input BGA2588 (BGA5384 conjugated with DXD) (antibody, human IgG1, kappa, V domains shown, DXD linker-payload conjugated after reduction of the antibody, DAR 8 profile (structure only as a drawing in Table 18)) VH: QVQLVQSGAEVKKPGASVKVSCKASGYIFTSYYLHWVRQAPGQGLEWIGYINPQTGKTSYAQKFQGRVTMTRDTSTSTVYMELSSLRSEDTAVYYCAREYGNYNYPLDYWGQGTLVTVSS VL: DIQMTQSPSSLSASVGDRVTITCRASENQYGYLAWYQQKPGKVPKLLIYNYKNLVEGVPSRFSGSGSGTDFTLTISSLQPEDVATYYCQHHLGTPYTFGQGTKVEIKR
# output 0.46 nM

# input Input BGA2490 (antibody, human IgG1, kappa, V domains shown, linker-payload conjugated after reduction of the antibody, DAR 8 profile (structure only as a drawing in Table 18)) VH: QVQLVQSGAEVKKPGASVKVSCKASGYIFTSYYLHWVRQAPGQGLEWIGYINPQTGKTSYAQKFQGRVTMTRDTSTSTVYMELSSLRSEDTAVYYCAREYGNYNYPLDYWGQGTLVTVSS VL: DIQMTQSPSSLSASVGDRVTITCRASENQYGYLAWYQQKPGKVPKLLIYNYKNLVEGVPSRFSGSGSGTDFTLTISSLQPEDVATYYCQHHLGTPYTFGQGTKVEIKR
# output 0.44 nM
